Target: hROMK (hKir1.1) (Homo sapiens (Human))
Sequence (P48048 whole entry): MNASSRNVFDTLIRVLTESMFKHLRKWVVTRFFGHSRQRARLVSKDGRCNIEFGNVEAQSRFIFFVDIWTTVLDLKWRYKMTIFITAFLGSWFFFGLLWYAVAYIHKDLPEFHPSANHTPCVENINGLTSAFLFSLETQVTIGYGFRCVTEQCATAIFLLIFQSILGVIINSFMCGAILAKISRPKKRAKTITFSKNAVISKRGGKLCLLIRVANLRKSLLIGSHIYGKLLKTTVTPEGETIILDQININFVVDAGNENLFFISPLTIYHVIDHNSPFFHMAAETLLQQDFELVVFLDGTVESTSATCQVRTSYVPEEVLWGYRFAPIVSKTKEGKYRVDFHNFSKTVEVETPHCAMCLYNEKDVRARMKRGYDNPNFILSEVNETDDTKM
Assay: Thallium Flux Assay (ROMK channel functional thallium flux, FLIPR-Tetra)
Format: cell-based
Conditions: HEK293 cells stably expressing hROMK (hKir1.1); read-out: Thallium Flux Assay IC50
Task for the reader: assign each of the following molecules its reported IC50.
Expressed in nM, but write only the number.

// IC50 value for Cc1c([C@@H](O)CN2CCN(C[C@H](O)c3ccc4c(c3)C[C@@H](C)OC4=O)CC2)ccc2c1COC2=O (single isomer, unassigned) [Example 38A] : 68.5

// IC50 value for Cc1c([C@@H](O)CN2C3CCC2C2CCC3N2CC(O)c2ccc(C#N)cn2)ccc2c1COC2=O (single isomer, unassigned) [Example 5] : 377

// IC50 value for Cc1nc(-n2cnnn2)ccc1[C@@H](O)CN1CCN(C[C@H](O)c2ccc3c(c2C)COC3=O)CC1 (single isomer, unassigned) [Example 36A] : 441

// IC50 value for Cc1c([C@@H](O)CN2CCN(CCc3ccc4c(c3)C[C@@H](C)OC4=O)CC2)ccc2c1COC2=O : 22

// IC50 value for Cc1c([C@@H](O)CN2CC3CCC2CN3S(=O)(=O)c2ccc(-n3cnnn3)cc2)ccc2c1COC2=O (single isomer, unassigned) [Example 17A] : 508

// IC50 value for Cc1c([C@@H](O)CN2CCN(C[C@@H](O)c3ccc4c(c3)CCS4(=O)=O)CC2)ccc2c1COC2=O (single isomer, unassigned) [Example 43B] : 52.4

// IC50 value for Cc1c([C@@H](O)CN2CCN(c3ccc(C#N)cn3)CC2)ccc2c1COC2=O : 743

// IC50 value for COc1cc(C(O)CN2C3COCC2CN(C[C@H](O)c2ccc4c(c2C)COC4=O)C3)ncc1C#N (stereo in doubt) [Example 25] : 20.5

// IC50 value for COc1cc(C(O)CN2C3CCC2C2CCC3N2C[C@H](O)c2ccc3c(c2C)COC3=O)ncc1C#N (single isomer, unassigned) [Example 6] : 26

// IC50 value for Cc1nc(-n2cnnn2)ccc1[C@@H](O)CN1CCN(C[C@H](O)c2ccc3c(c2C)COC3=O)CC1 (single isomer, unassigned) [Example 36B] : 171

// IC50 value for CCc1c(C(O)CN2CCN(CCc3ccc4c(c3)CCOC4=O)CC2)ccc2c1COC2=O (stereo not shown) : 71

// IC50 value for Cc1c([C@@H](O)CN2[C@@H]3CC[C@H]2CN(c2ccc(C#N)cn2)C3)ccc2c1COC2=O : 640

// IC50 value for COc1cc(C(O)CN2C3CCC2C2CCC3N2C[C@H](O)c2ccc3c(c2C)COC3=O)ncc1C#N (single isomer, unassigned) [Example 9] : 23

---

Target: hROMK (hKir1.1) (Homo sapiens (Human))
Assay: Thallium Flux Assay (ROMK channel functional thallium flux, FLIPR-Tetra)
Assay type: cell-based
Conditions: HEK293 cells stably expressing hROMK (hKir1.1); read-out: Thallium Flux Assay IC50
Property: pIC50
Value format note: pIC50 is -log10 of concentration (mol/L); just state the number.

// pIC50 value for O=C1OCCc2cc(CCN3CCN(CC(O)c4ccc5c(c4C(F)(F)F)COC5=O)CC3)ccc21 (stereo not shown) : 6.53

// pIC50 value for Cc1c([C@@H](O)CN2CC3COCC(C2)N3CC(O)c2ccc(C#N)cn2)ccc2c1COC2=O (stereo partly shown) : 7.11

// pIC50 value for Cc1c([C@@H](O)CN2CCN(C[C@H](O)c3ccc4c(c3)C[C@H](C)OC4=O)CC2)ccc2c1COC2=O (single isomer, unassigned) [Example 37B] : 7.31

// pIC50 value for Cc1c([C@@H](O)CN2CCN(C[C@H](O)c3ccc4c(c3C)COC4=O)C(C)(C)C2)ccc2c1COC2=O : 6.95

---

Task for the reader: assign each of the following molecules its reported IC50.
Target: UniProtKB P48048
Test: Thallium Flux Assay (ROMK channel functional thallium flux, FLIPR-Tetra)
Format: cell-based
Settings: HEK293 cells stably expressing hROMK (hKir1.1); read-out: Thallium Flux Assay IC50
Expressed in nM, but write only the number.

// IC50 value for Cc1c([C@@H](O)CN2[C@@H]3CC[C@H]2CN(C(=O)c2ccc(-n4cnnn4)nc2)C3)ccc2c1COC2=O : 342

// IC50 value for Cc1c([C@@H](O)CN2CCN(C[C@H](O)c3ccc4c(c3C)COC4=O)C3(CCCC3)C2)ccc2c1COC2=O : 311

// IC50 value for Cc1c([C@@H](O)CN2CC3COCC(C2)N3C[C@H](O)c2ccc3c(c2C)COC3=O)ccc2c1COC2=O : 30.8

// IC50 value for Cc1c([C@H](O)CN2CCN(CCc3ccc4c(c3)C[C@@H](C)OC4=O)CC2)ccc2c1COC2=O : 185

// IC50 value for Cc1c([C@H](O)CN2CCN(CCc3ccc4c(c3)CCOC4=O)CC2)ccc2c1COC2=O : 318

// IC50 value for Cc1c([C@@H](O)CN2CC3CCC2CN3S(=O)(=O)c2ccc(-n3cnnn3)cc2)ccc2c1COC2=O (single isomer, unassigned) [Example 17B] : 997

// IC50 value for Cc1c([C@@H](O)CN2C3COCC2CN(CC(O)c2ccc(C#N)cn2)C3)ccc2c1COC2=O (some centres unmarked) : 1620

// IC50 value for Cc1nc(C(O)CN2C3CCC2C2CCC3N2C[C@H](O)c2ccc3c(c2C)COC3=O)ccc1C#N (some centres unmarked) : 115

// IC50 value for Cc1c([C@@H](O)CN2CCN(C[C@H](O)c3ccc4c(c3)C[C@@H](C)OC4=O)CC2)ccc2c1COC2=O (single isomer, unassigned) [Example 38B] : 33.4

// IC50 value for Cc1c([C@@H](O)CN2C[C@@H]3C[C@H]2CN3S(=O)(=O)c2ccc(C#N)cc2)ccc2c1COC2=O : 636

// IC50 value for Cc1c([C@@H](O)CN2C3CCC2C2CCC3N2CC(O)c2ccc(C#N)cn2)ccc2c1COC2=O (single isomer, unassigned) [Example 8] : 915

// IC50 value for Cc1cc(-n2cnnn2)ncc1[C@@H](O)CN1CCN(C[C@H](O)c2ccc3c(c2C)COC3=O)CC1 (single isomer, unassigned) [Example 35A] : 105

// IC50 value for Cc1c([C@@H](O)CN2CCN(CCc3ccc4c(c3)CCOC4=O)CC2)ccc2c1COC2=O : 56

// IC50 value for Cc1c([C@@H](O)CN2CCN(C[C@H](O)c3ccc4c(c3)C[C@H](C)OC4=O)CC2)ccc2c1COC2=O (single isomer, unassigned) [Example 37A] : 685

---

Molecular target: hROMK (hKir1.1) (Homo sapiens (Human))
Assay: Thallium Flux Assay (ROMK channel functional thallium flux, FLIPR-Tetra)
Format: cell-based
Conditions: Thallium Flux Assay IC50
Property: IC50 (µM)
Expressed in µM, but write only the number.

// IC50 value for Cc1c([C@@H](O)CN2C3COCC2CN(CC(O)c2ccc4c(c2)C[C@@H](C)OC4=O)C3)ccc2c1COC2=O (single isomer, unassigned) [Example 24B] : 0.0361

// IC50 value for Cc1c([C@@H](O)CN2C3COCC2CN(CC(O)c2ccc4c(c2)C[C@H](C)OC4=O)C3)ccc2c1COC2=O (single isomer, unassigned) [Example 23B] : 0.0405

// IC50 value for Cc1c([C@@H](O)CN2C3COCC2CN(CC(O)c2ccc4c(c2)C[C@H](C)OC4=O)C3)ccc2c1COC2=O (single isomer, unassigned) [Example 23A] : 0.461

---

Task for the reader: assign each of the following compounds its reported pIC50.
Molecular target: UniProt:P48048
Assay: Thallium Flux Assay (ROMK channel functional thallium flux, FLIPR-Tetra)
Format: cell-based
Details: HEK293 cells stably expressing hROMK (hKir1.1); read-out: Thallium Flux Assay IC50
Value format note: pIC50 is -log10 of concentration (mol/L); just state the number.

// pIC50 value for COc1cc(C(O)CN2C3COCC2CN(C[C@H](O)c2ccc4c(c2C)COC4=O)C3)ncc1C#N (stereo in doubt) [Example 26] : 7.31

// pIC50 value for Cc1c([C@@H](O)CN2CCN(C[C@@H](O)c3ccc4c(c3)CCS4(=O)=O)CC2)ccc2c1COC2=O (single isomer, unassigned) [Example 43A] : 7.28

// pIC50 value for COc1cc(C(O)CN2CCN(CC(O)c3ccc4c(c3)C[C@H](C)OC4=O)CC2)ncc1C#N (single isomer, unassigned) [Example 44A] : 6.15

// pIC50 value for COc1cc(C(O)CN2CCN(CC(O)c3ccc4c(c3)C[C@H](C)OC4=O)CC2)ncc1C#N (single isomer, unassigned) [Example 44B] : 6.61

// pIC50 value for Cc1c([C@@H](O)CN2CCCCN(C[C@H](O)c3ccc4c(c3C)COC4=O)CC2)ccc2c1COC2=O : 6.16

// pIC50 value for Cc1cc(-n2cnnn2)ncc1[C@@H](O)CN1CCN(C[C@H](O)c2ccc3c(c2C)COC3=O)CC1 (single isomer, unassigned) [Example 35B] : 6.56

Hey, just so you know, these numbers are from patent US9139585B2.
